# System: HSSY-II complex spheroid growth, percent test/control
# assay-method-text: Anticancer human tumor HSSY-II cell line growth inhibition [Asc];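 further: spheroids exposed to drug for 7 days before reading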
# measurement-setup: second compound 0.0316 µM; first compound 0.00316 µM; stronger effect = lower value
Field 'label' (enum: TRUE / FALSE). Set to TRUE when viability, T/C is strictly under 80%; else FALSE.

molecule	assigned-class
NC1CCC(NC2CC2c2ccccc2)CC1 (stereo not given) + CNC(C)C(=O)NC1CN(S(=O)(=O)c2cccc(S(=O)(=O)N3CCC4CCC(C(=O)NC(c5ccccc5)c5ccccc5)N4C(=O)C(NC(=O)C(C)NC)C3)c2)CCC2CCC(C(=O)NC(c3ccccc3)c3ccccc3)N2C1=O	TRUE
O=C(c1ccc(F)c(F)c1Nc1ccc(I)cc1F)N1CC(O)([C@@H]2CCCCN2)C1 + CNC(C)C(=O)NC1CN(S(=O)(=O)c2cccc(S(=O)(=O)N3CCC4CCC(C(=O)NC(c5ccccc5)c5ccccc5)N4C(=O)C(NC(=O)C(C)NC)C3)c2)CCC2CCC(C(=O)NC(c3ccccc3)c3ccccc3)N2C1=O	FALSE

---

# Test system: HSSY-II complex spheroid growth, percent test/control
# assay-method-text: Anticancer human tumor HSSY-II cell line growth inhibition [Asc];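 further: spheroids exposed to drug for 7 days before reading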
# measurement-setup: second compound 0.1 µM; first compound 0.1 µM; stronger effect = lower value
Field 'label' (enum: 1 (yes) / 0 (no)). Set to 1 (yes) when viability, T/C is strictly under 70%; else 0 (no).

molecule	assigned-class
Cn1ncnc1[C@H]1c2n[nH]c(=O)c3cc(F)cc(c23)N[C@@H]1c1ccc(F)cc1 + Cc1c(S(C)(=O)=O)c(-c2cc(F)cc(N3CCN(c4ccc(NS(=O)(=O)c5ccc(NC(CCN6CCC(C(=O)OCCCP(=O)(O)O)CC6)CSc6ccccc6)c(S(=O)(=O)C(F)(F)F)c5)cc4)CC3)c2)c(-c2ccc(Cl)cc2)n1C(C)C	1 (yes)
C#Cc1c(F)ccc2cc(O)cc(-c3ncc4c(N5CC6CCC(C5)N6)nc(OCC56CCCN5CC(F)C6)nc4c3F)c12 (stereo unspecified) + Cc1c(S(C)(=O)=O)c(-c2cc(F)cc(N3CCN(c4ccc(NS(=O)(=O)c5ccc(NC(CCN6CCC(C(=O)OCCCP(=O)(O)O)CC6)CSc6ccccc6)c(S(=O)(=O)C(F)(F)F)c5)cc4)CC3)c2)c(-c2ccc(Cl)cc2)n1C(C)C	0 (no)
Cn1ncnc1[C@H]1c2n[nH]c(=O)c3cc(F)cc(c23)N[C@@H]1c1ccc(F)cc1 + CNC(C)C(=O)NC1CN(S(=O)(=O)c2cccc(S(=O)(=O)N3CCC4CCC(C(=O)NC(c5ccccc5)c5ccccc5)N4C(=O)C(NC(=O)C(C)NC)C3)c2)CCC2CCC(C(=O)NC(c3ccccc3)c3ccccc3)N2C1=O	1 (yes)
C=CC(=O)N1CCN(c2nc(=O)n(-c3c(C)ccnc3C(C)C)c3nc(-c4c(O)cccc4F)c(F)cc23)C(C)C1 (stereo unspecified) + Cc1c(S(C)(=O)=O)c(-c2cc(F)cc(N3CCN(c4ccc(NS(=O)(=O)c5ccc(NC(CCN6CCC(C(=O)OCCCP(=O)(O)O)CC6)CSc6ccccc6)c(S(=O)(=O)C(F)(F)F)c5)cc4)CC3)c2)c(-c2ccc(Cl)cc2)n1C(C)C	0 (no)
O=C(c1cc(Cc2n[nH]c(=O)c3ccccc23)ccc1F)N1CCN(C(=O)C2CC2)CC1 + Cc1c(S(C)(=O)=O)c(-c2cc(F)cc(N3CCN(c4ccc(NS(=O)(=O)c5ccc(NC(CCN6CCC(C(=O)OCCCP(=O)(O)O)CC6)CSc6ccccc6)c(S(=O)(=O)C(F)(F)F)c5)cc4)CC3)c2)c(-c2ccc(Cl)cc2)n1C(C)C	0 (no)

Source listed as PubChem BioAssay AID1963444.
